Reference source: ChEMBL document CHEMBL1140287

# Test system: NIH3T3
The label depends only on Reversal ability: label 1 if it is at least 6, label 0 if it is smaller.

compound | label class
CC(=O)OC[C@]12[C@@H](OC(=O)c3ccccc3)[C@@H](OC(=O)c3ccccc3)[C@@H]3[C@@H](OC(C)=O)[C@]1(OC3(C)C)[C@@](C)(O)C[C@H](OC(C)=O)[C@@H]2OC(C)=O | label 0
CC(=O)OC[C@]12[C@H](OC(=O)c3ccccc3)C(=O)[C@@H]3[C@@H](OC(C)=O)[C@]1(OC3(C)C)[C@@](C)(O)C[C@H](OC(=O)c1ccccc1)[C@@H]2OC(=O)c1ccccc1 | label 1
CC(=O)OC[C@]12[C@H](OC(=O)c3ccccc3)C(=O)[C@@H]3[C@@H](OC(C)=O)[C@]1(OC3(C)C)[C@H](C)C[C@H](OC(C)=O)[C@@H]2OC(=O)c1ccccc1 | label 0
CC(=O)O[C@@H]1[C@H]2[C@H](O)[C@H](OC(=O)c3ccccc3)[C@]3(C)[C@@H](OC(=O)c4ccccc4)[C@@H](OC(=O)c4ccccc4)C[C@](C)(O)[C@@]13OC2(C)C | label 1
CC(=O)O[C@H]1C[C@](C)(O)[C@]23OC(C)(C)[C@H]([C@H](OC(=O)c4ccccc4)[C@H](OC(=O)c4ccccc4)[C@]2(C)[C@H]1OC(=O)c1ccccc1)[C@H]3OC(C)=O | label 1
